test: inhibition of 3D7 malaria parasite growth – strain 3D7 (AID 2306); conditions: P. falciparum 3D7 erythrocytic growth, LDH absorbance, 72 h; at 2 µM; active compounds read high
Kindly return satisfied if reported growth inhibition is no lower than 90%; return not satisfied if it is lower.

Smi	Category label
O=C(/C=C/c1ccc(Cl)c(Cl)c1)NC1CCN(Cc2cccc(O)c2)CC1	satisfied
Cc1cc(=O)c2cc(Oc3ccc(OC(F)(F)F)cc3)ccc2[nH]1	not satisfied
COC(=O)CCCCOc1cc(Cc2cnc(N)nc2N)cc(OC)c1OC	satisfied
O=C1NC(=S)NC1=CC=Cc1ccc([N+](=O)[O-])o1	not satisfied

Dear colleague, could you confirm whether CCNc1cc(C(=O)N[C@@H](Cc2ccccc2)[C@H](O)CNCc2cc(OC)cc(OC)c2)cc(N2CCCC2=O)c1 has growth inhibition at or above 90%? satisfied
